Test system: SK-OV-3
measurement_notes: NCI tumour cell line growth inhibition, 48 h
Where a name gives a salt, the structure may show the parent alone. Calls of active or inactive are those of the source. Cut-off read from the data, not from the text of the source: active = GI50 up to about 1.1 µM and inactive = higher. Where a SMILES comes first, the peptide text is derived from it. [ ]: non-standard residue; d: D form. The star is where a group is joined. ξ: configuration not given here. ξPhe(4-NO2) = NC(Cc1ccc([N+](=O)[O-])cc1)C(=O)O; Boc = CC(C)(C)OC(=O)*; OBn = c1ccc(CO*)cc1
Answer with one of the outcomes given here: active, inactive

[Q] Could you kindly confirm the outcome this assay logged for CC(=O)NCC1OC2COC(c3ccccc3)OC2C2N=C(c3ccccc3)OC12 (stereo unspecified) ?
[A] inactive

[Q] How did this test come out for COc1cc(CSc2ccc(O)cc2)cc(O)c1O ?
[A] inactive

[Q] Dear all, I need the recorded test outcome for CNc1ncnc2c1cnn2COCC(O)CO (stereo unspecified) , thank you.
[A] inactive

[Q] What did the test return for COc1ccc(C)cc1NC(=S)C#N ?
[A] inactive

[Q] So what was the verdict on COC1/C=C\OC2(C)Oc3c(C)c(O)c4c(O)c(c(/C=N\OCCCc5ccccc5)c(O)c4c3C2=O)NC(=O)/C(C)=C\C=C/C(C)C(O)C(C)C(O)C(C)C(OC(C)=O)C1C (stereo unspecified) in this test?
[A] inactive

[Q] Look up the recorded call for CC(C)NC(=O)OCc1c(COC(=O)NC(C)C)c(-c2ccc[n+](COC(=O)Cc3ccccc3)c2)n2c1CCC2 in this test.
[A] inactive

[Q] Assay outcome for Nc1nc(Cl)cc(NCC2(CO)CCC2)n1 : what was it?
[A] inactive

[Q] // outcome(item) with item = C=CCN(N=O)C(=O)N(CCCCC(NC(C)=O)C(=O)NCc1ccccc1)Cc1ccccc1 (stereo unspecified)
[A] inactive

[Q] // param item: N#CC(C#N)c1ccc(C(=O)N2CCC[C@H]2CO)cc1 ; yields the recorded call
[A] inactive

[Q] Given O=C(NC12CC3CC(CC(C3)C1)C2)n1cnc2cncnc21 , state the outcome it received in this test.
[A] inactive

[Q] Status in this test for O=C1CC(Cl)c2c1csc2Br (stereo unspecified) ?
[A] inactive

[Q] Hi team, can someone confirm the assay call for Cc1nn(-c2ccccc2)c2nc3c(c(C)nn3-c3ccccc3)c(-c3ccccc3Br)c12 ?
[A] inactive

[Q] // return assay outcome for O=C(Cc1ccccc1[N+](=O)[O-])C(CO)c1ccccc1[N+](=O)[O-] (stereo unspecified)
[A] inactive

[Q] For COc1cc([C@H]2c3cc(O)c(OC)cc3C[C@]3(O)[C@@H]2CO[C@@H]3O)ccc1O , which call appears in the assay record?
[A] inactive

[Q] Identify the outcome logged in this assay for the molecule shown: CC(C)(C)OC(=O)NC(Cc1ccc([N+](=O)[O-])cc1)C(=O)NCC(=O)OCc1ccccc1 (stereo unspecified) (Boc-[ξPhe(4-NO2)]-Gly-OBn)
[A] inactive

[Q] Look up the recorded call for Cc1ccc2c(=O)cc(-c3cccc(F)c3)[nH]c2n1 in this test.
[A] active

[Q] Entry NCCc1cc(O)c(O)cc1O [OXIDOPAMINE HYDROCHLORIDE] : call = ?
[A] inactive

[Q] Answer briefly: the call reported for CCOC(=O)C1=C(C)N(NC(N)=O)C2(O)CCCC(=O)C12C (stereo unspecified) in this assay.
[A] inactive

[Q] GET /call?item= Nc1c(S(=O)(=O)O)cc2cc(S(=O)(=O)O)ccc2c1/N=N/c1ccc(-c2ccc(/N=N/c3c(N)c(S(=O)(=O)O)cc4cc(S(=O)(=O)O)ccc34)c(S(=O)(=O)O)c2)cc1 returns the recorded outcome of this test.
[A] inactive

[Q] Query: recorded result category for C=C1Cc2cc(OC)c(OC)c(OC)c2-c2ccc(SC)c(=O)cc21 in this test
[A] active

[Q] Tell me the recorded outcome of this test for CC(C)N1CSC(=S)N(Cc2ccccc2)C1 .
[A] inactive

[Q] Given O=[N+]([O-])c1cccc(-c2ncc3c(n2)-c2ccccc2C3)c1 , state the outcome it received in this test.
[A] inactive

[Q] Any idea what this test logged for S=C1/C(=N/c2ccccc2)N(c2ccccc2)/C(=N\c2cccc[n+]2Cc2ccccc2)N1c1ccccc1 ?
[A] inactive

[Q] GET /call?item= O=C(Nc1nc(C23CC4CC(CC(C4)C2)C3)cs1)c1cc2cc(Br)cc(Br)c2oc1=O returns the recorded outcome of this test.
[A] inactive

[Q] Status in this test for N#CC1C2CCC3(CC2CCN1C(=O)c1ccccc1)OCCO3 (stereo unspecified) ?
[A] inactive

[Q] Dear all, I need the recorded test outcome for NC(=S)NS(=O)(=O)c1ccc(Cl)cc1 , thank you.
[A] inactive

[Q] Identify the outcome logged in this assay for the molecule shown: COCCN1C2=CCCCC2=Nc2c1nc(N)[nH]c2=O
[A] inactive

[Q] What is the recorded call for this molecule in the test? O=C(O)[C@@H]1OCCOCCO[C@@H](C(=O)O)[C@H](C(=O)O)OCCOCCO[C@H]1C(=O)O
[A] inactive

[Q] So what was the verdict on Cc1cc2c(=O)cc(-c3ccncc3)oc2c(C(N)=O)c1C in this test?
[A] inactive

[Q] Please let me know the test result on file for CCCN(CCC)C1CCc2c(ccc3cc[nH]c23)C1 (stereo unspecified) .
[A] inactive

[Q] Please indicate how the test categorized CC1=C(C(=O)O)N2C(=O)[C@@H](NC(=O)C(c3ccccc3)N3CSC(=S)N(C(C)C)C3)C2SC1 (stereo partly specified) .
[A] inactive

Just for reference, ChEMBL document CHEMBL1201862 is where these values come from.
